Tested on: HCT-116 (APC wild-type colorectal cancer cells)
method: CellTiter-Glo 2.0 cell viability, HCT-116
Format: cell-based
condition: Homo sapiens, read-out: EC50 for Decrease in Viability
Here, each record is paired with measured EC50 data.

{"molecule": "Cn1cnc2c(F)c(Nc3ccc(Br)cc3Cl)c(C(=O)NOCCO)cc21 [Selumetinib, reference compound]", "assayed_system": "HCT-116 (APC wild-type colorectal cancer cells)", "EC50": "> 2000 nM"}
{"molecule": "Cn1c(=O)c(F)c(Nc2ccc(I)cc2F)c2c(=O)n(C[C@@H](O)CO)cnc21 [REC-4881]", "assayed_system": "HCT-116 (APC wild-type colorectal cancer cells)", "EC50": "> 2000 nM"}
